# System: Vero E6 infected with SARS-CoV-2
# experiment: inhibition of SARS-CoV-2 cytopathic effect; higher = more antiviral protection, active = above 15
# particulars: 10000 nM; 48 h
Outcome field: choose from active, inactive

# example entries with known answers
Nc1ccccc1S(N)(=O)=O [2-aminobenzenesulfonamide]: inactive
CC(=O)[C@H]1CC[C@H]2[C@@H]3CCC4=CC(=O)CC[C@]4(C)[C@H]3CC[C@]12C: inactive
CCOc1nc2cccc(C(=O)O)c2n1Cc1ccc(-c2ccccc2-c2noc(=O)[nH]2)cc1: inactive
Cc1ccc2c(=O)c3ccccc3n(CCCN)c2c1C: inactive
COc1ccc(C(=O)/C(Cc2cc(OC)c(OC)c(OC)c2)=C(\C(=O)O)c2ccc3c(c2)OCO3)cc1: active

Moving on to another compound below.
Hi, sorry to bother you, what did the test record for "CCN(CC)CCO[C@H]1CC[C@@]2(C)C(=CC[C@@H]3[C@@H]2CC[C@]2(C)C(=O)CC[C@@H]32)C1" ?
active

----------
# System: Vero E6 infected with SARS-CoV-2
# experiment: inhibition of SARS-CoV-2 cytopathic effect; higher = more antiviral protection, active = above 15
# particulars: 100 nM; 48 h
endpoint_name: inhibition of SARS-CoV-2 cytopathic effect

Worked cases, answers included:
CC1=NN(c2ccc(C)c(C)c2)C(=O)/C1=N\Nc1cccc(-c2cccc(C(=O)O)c2)c1O: 2.06% (inactive)
C[C@]12CC[C@H](O)C[C@H]1CC[C@@H]1[C@@H]2CC[C@]2(C)[C@@H](C3=CC(=O)OC3)CC[C@]12O: -11.8% (inactive)
CC(C)C[C@H](CN)CC(=O)O: -0.55% (inactive)
C=C(C)[C@@H]1CC=C(CO)CC1: 2.99% (inactive)
Oc1cc2c(cc1O)CN(C(=S)NCCc1ccc(Cl)cc1)CCC2 [capsazepine]: -0.11% (inactive)

Complete the entry with inhibition of SARS-CoV-2 cytopathic effect for CC(Cc1cccc(C(F)(F)F)c1)NCCOC(=O)c1ccccc1 (configuration not stated)
-0.24% (inactive)

Complete the entry with inhibition of SARS-CoV-2 cytopathic effect for "OC1(c2ccc(Cl)c(C(F)(F)F)c2)CCN(CCCC(c2ccc(F)cc2)c2ccc(F)cc2)CC1"
1.5% (inactive)

Complete the entry with inhibition of SARS-CoV-2 cytopathic effect for CN(C)CCOC(=O)C(c1ccccc1)C1(O)CCCC1 (configuration not stated) [cyclopentolate]
-2.5% (inactive)

Complete the entry with inhibition of SARS-CoV-2 cytopathic effect for "Cc1csc(-c2nnc(Nc3ccc(Oc4ncccc4-c4ccnc(N)n4)cc3)c3ccccc23)c1"
-5.41% (inactive)

Complete the entry with inhibition of SARS-CoV-2 cytopathic effect for "NC(=S)N/N=C/c1ccncc1"
0.96% (inactive)

----------
# System: Vero E6 infected with SARS-CoV-2
# experiment: inhibition of SARS-CoV-2 cytopathic effect; higher = more antiviral protection, active = above 15
# particulars: 1 nM; 48 h
endpoint_name: inhibition of SARS-CoV-2 cytopathic effect (%)
Your answer is read as %, so omit the unit and give the number.

Worked cases, answers included:
O=C(CCc1ccc(O)cc1)c1c(O)cc(O)cc1O: -0.18
NC(=O)[C@H]1CCS[C@@H]2C[C@]3(CCCN3C(=O)Cc3ccc(NC(=O)COc4ccc(Cl)cc4Cl)cc3)C(=O)N12: 0.49
N=C(N)NCc1cccc(I)c1: -1.82

Complete the entry with inhibition of SARS-CoV-2 cytopathic effect for "C[C@]12CC[C@H](O)C[C@H]1CC[C@@H]1[C@@H]2CC[C@]2(C)[C@@H](C3=CC(=O)OC3)CC[C@]12O"
-1.6

Complete the entry with inhibition of SARS-CoV-2 cytopathic effect for "CC(C)CCC[C@@H](C)[C@H]1CC[C@H]2[C@@H]3CC=C4C[C@@H](O)CC[C@]4(C)[C@H]3CC[C@]12C"
-1.33

Complete the entry with inhibition of SARS-CoV-2 cytopathic effect for "Clc1ccc(N2CCN(Cc3c[nH]c4ncccc34)CC2)cc1"
-0.1

Complete the entry with inhibition of SARS-CoV-2 cytopathic effect for "N#Cc1ccncn1"
3.43

Complete the entry with inhibition of SARS-CoV-2 cytopathic effect for CN(C)CCC(c1ccc(Br)cc1)c1ccccn1 (centres undefined)
4.45

Complete the entry with inhibition of SARS-CoV-2 cytopathic effect for "Cc1c(C(=O)NC2CCCCC2)sc2nc3ccc(N)cc3n12"
0.16

----------
Item-by-item account of inhibition of SARS-CoV-2 cytopathic effect
# Test system: Vero E6 infected with SARS-CoV-2
# experiment: inhibition of SARS-CoV-2 cytopathic effect; higher = more antiviral protection, active = above 15
# particulars: 8.33 nM; 48 h
Your answer is read as %, so omit the unit and give the number.

Complete the entry with inhibition of SARS-CoV-2 cytopathic effect for "O=C(c1ccc(/C=C/c2n[nH]c3ccccc23)cc1)N1CCNCC1"
1.26

Complete the entry with inhibition of SARS-CoV-2 cytopathic effect for "CO[C@@H]1COCC[C@@H]1N[C@@H]1CC[C@@](C(=O)N2CCc3ncc(C(F)(F)F)cc3C2)(C(C)C)C1"
-0.35

Complete the entry with inhibition of SARS-CoV-2 cytopathic effect for O=C(O)c1ccccc1 [benzoic-acid]
-0.31

Complete the entry with inhibition of SARS-CoV-2 cytopathic effect for CC(=O)Nc1ccc(C(=O)O)cc1 [acedoben]
3.16

Complete the entry with inhibition of SARS-CoV-2 cytopathic effect for Clc1ccc2c(c1)N=C(N1CCNCC1)c1ccccc1N2 [desmethylclozapine]
0.8

Complete the entry with inhibition of SARS-CoV-2 cytopathic effect for CN1CCCCC1Cn1cc(C(=O)c2cc([N+](=O)[O-])ccc2I)c2ccccc21 (stereo not drawn)
0.44

Complete the entry with inhibition of SARS-CoV-2 cytopathic effect for COC(=O)N/N=C/c1c[n+]([O-])c2ccccc2[n+]1[O-] [carbadox]
-0.55

Complete the entry with inhibition of SARS-CoV-2 cytopathic effect for "CC(=O)N1CCC(C(=O)N(CCCN2CCC(Cc3ccc(C(N)=O)cc3)CC2)c2ccc(C)c(Cl)c2)CC1"
-0.02

Complete the entry with inhibition of SARS-CoV-2 cytopathic effect for CC[C@H](c1ccc(O)cc1)[C@@H](CC)c1ccc(O)cc1 [hexestrol]
-0.58

Complete the entry with inhibition of SARS-CoV-2 cytopathic effect for O=c1[nH]c(=O)n([C@H]2C[C@H](O)[C@@H](CO)O2)cc1F [floxuridine]
1.34

Complete the entry with inhibition of SARS-CoV-2 cytopathic effect for "CCN1CCN(Cc2ccc(-c3cc4c(N[C@H](C)c5ccccc5)ncnc4[nH]3)cc2)CC1"
0.57

Complete the entry with inhibition of SARS-CoV-2 cytopathic effect for "OCCn1cc(-c2cnc3nnn(Cc4ccc5ncccc5c4)c3n2)cn1"
2

Complete the entry with inhibition of SARS-CoV-2 cytopathic effect for CCCC[C@H](NC(=O)[C@@H]1[C@@H]2[C@H](CN1C(=O)[C@@H](NC(=O)NC1(CS(=O)(=O)C(C)(C)C)CCCCC1)C(C)(C)C)C2(C)C)C(=O)C(=O)NC1CC1 [narlaprevir]
1.32

----------
# Test system: Vero E6 infected with SARS-CoV-2
# experiment: SARS-CoV-2 infection rate relative to infected DMSO; higher = more infection, active = 60 or less
# particulars: 24 h
Item-by-item account of SARS-CoV-2 infection rate
Your answer is read as %, so omit the unit and give the number.

Worked cases, answers included:
C[C@H](CCC(=O)O)[C@H]1CC[C@H]2[C@@H]3[C@H](O)C[C@@H]4C[C@H](O)CC[C@]4(C)[C@H]3C[C@H](O)[C@]12C [cholic-acid] (10 µM): 110
O=C(Nc1cc(Oc2cc(F)c(NC(=O)C3(C(=O)Nc4ccc(F)cc4)CC3)cc2F)ccn1)C1CC1 [altiratinib] (10 µM): 88.5
CCCCCCCCc1ccc(CCC(N)(CO)CO)cc1 [fingolimod] (10 µM): 26.5
N[C@H](Cc1ccccc1)C(=O)O [D-phenylalanine] (10 µM): 104
Nc1ncnc(Nc2ccc(Cl)cc2)n1 [chlorazanil] (10 µM): 106
COC[C@H]1OC(=O)c2coc3c2[C@@]1(C)C1=C(C3=O)[C@@H]2CCC(=O)[C@@]2(C)C[C@H]1OC(C)=O [wortmannin] (0.833333 µM): 79.5
Nc1ccc(O)c(C(=O)O)c1 [mesalazine] (10 µM): 93.5
CCN(CC)S(=O)(=O)c1ccc(C(=O)O)cc1 [etebenecid] (10 µM): 105
CN(C)CCN1C(=O)c2cccc3cc(N)cc(c23)C1=O [amonafide] (0.833333 µM): 102
CC(C(=O)O)c1ccc(CC2CCCC2=O)cc1 (stereo not drawn) [loxoprofen] (10 µM): 108

Complete the entry with SARS-CoV-2 infection rate for Cc1cc(NC(=O)Nc2ccc(N(C)C)cc2)c2cc(F)cc(F)c2n1 (10 µM)
99

----------
Item-by-item account of inhibition of SARS-CoV-2 cytopathic effect
# Test system: Vero E6 infected with SARS-CoV-2
# experiment: inhibition of SARS-CoV-2 cytopathic effect; higher = more antiviral protection, active = above 15
# particulars: 8.33 nM; 48 h
Your answer is read as %, so omit the unit and give the number.

Worked cases, answers included:
COC(=O)[C@H](CC(C)C)NC(=O)c1ccc(NC[C@@H](N)CS)cc1-c1cccc2ccccc12: 4.63
NC(=S)N/N=C/c1ccncc1: 1.74
COc1cc(C#N)ccc1S(=O)(=O)Nc1ccc2c(c1)cc(C)c(=O)n2C: 1.53
CC(=O)OCC(=O)NCCCOc1cccc(CN2CCCCC2)c1 [roxatidine-acetate]: 2.22
C=CCc1cccc(/C=N/NC(=O)CN2CCN(Cc3ccccc3)CC2)c1O: 0.95
CN(C)CCN(Cc1ccccc1)c1ccccn1: 2.84
[I-].[K+] [potassium-iodide]: -3.7
N#Cc1c(N)nc(SCC(N)=O)c(C#N)c1-c1ccc(OCC2CC2)cc1: 2.85
CC(=O)N[C@@H](CCC(N)=O)C(=O)O [aceglutamide]: 3.16
COCCOC(=O)C1=C(C)NC(C)=C(C(=O)OC/C=C/c2ccccc2)C1c1cccc([N+](=O)[O-])c1 (centres undefined): -0.52

--- query ---
Enter recorded inhibition of SARS-CoV-2 cytopathic effect with Vero E6 infected with SARS-CoV-2 for "C1COC(NC(C2CC2)C2CC2)=N1" here.
3.39
